assay: Stability
Format: in vitro ADME
particulars: rat, half-life of SP in blood samples, blood acidified with 0.3% HClO4 (v/v), 0 °C
Where no end group is shown, it is not given here.
observation_type: half-life

## Task Using the record for GQTYTSG [SP, GQTYTSG] , state its measured half-life.
## Result > 5.83 h

* * *

assay: Stability
Type: in vitro ADME
particulars: rat, whole blood, half-life of SP in blood samples, blood acidified with 0.3% H2SO4 (v/v), 0 °C
Where no end group is shown, it is not given here.
observation_type: half-life

## Task Using the record for GQTYTSG [SP, GQTYTSG] , state its measured half-life.
## Result > 5.83 h

Numbers sourced from paper PMC9073091.
